testedTarget: hOGG1 (Homo sapiens, UniProt O15527)
Sequence (O15527 12-323): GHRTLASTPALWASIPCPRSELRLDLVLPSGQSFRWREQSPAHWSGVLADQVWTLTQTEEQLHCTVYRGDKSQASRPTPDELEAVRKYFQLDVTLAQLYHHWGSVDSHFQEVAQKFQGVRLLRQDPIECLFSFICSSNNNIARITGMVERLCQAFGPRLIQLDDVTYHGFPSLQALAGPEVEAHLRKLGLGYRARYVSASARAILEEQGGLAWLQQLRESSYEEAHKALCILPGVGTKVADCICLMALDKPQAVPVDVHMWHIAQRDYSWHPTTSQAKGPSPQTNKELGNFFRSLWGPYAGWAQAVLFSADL
assayRemarks: Biochemical fluorescence assay to measure enzymatic activity of hOGG1 (OGG1/APEX IC50)
Design: Protein His-hOGG1 (12-323) was prepared; His (N); host or cells: E. coli
statedConditions: 1 nM OGG1+2 nM APEX+6 nM dsDNA (8-oxo-dG substrate); pH 7.5; RT 40 min; read-out: OGG1/APEX IC50
pIC50: −log10 of the molar value.
endpoint: pIC50

q: pIC50 for `COc1cc(NC(=O)[C@H]2CC[C@@H](N3Cc4c(ccc(O)c4Br)C3=O)CC2)ccc1C` ?
a: 6.00 to 7.00

q: pIC50 for `COc1cc(NC(=O)[C@@H]2CC[C@H](N3Cc4ccccc4NC3=O)C2)ccc1C` ?
a: 5.00 to 6.00

Would you kindly look at the next entry?
q: pIC50 for `Cc1ccc(NC(=O)[C@H]2CC[C@@H](N3Cc4c(C)cccc4C3=O)CC2)cc1CO` ?
a: 5.00 to 6.00

* * *

testedTarget: hOGG1 (Homo sapiens, UniProt O15527)
assayRemarks: Biochemical fluorescence assay to measure enzymatic activity of hOGG1 (OGG1/APEX IC50)
Set-up: Protein His-hOGG1 (12-323) was prepared; His (N); host or cells: E. coli
statedConditions: 1 nM OGG1+2 nM APEX+6 nM dsDNA (8-oxo-dG substrate); pH 7.5; RT 40 min; read-out: OGG1/APEX IC50
pIC50: −log10 of the molar value.
endpoint: pIC50

Consider the reported pIC50 for these molecules:
q: pIC50 for `COc1cc(NC(=O)[C@H]2CC[C@@H](N3Cc4c(C)cc(OCCN(C)C)cc4C3=O)CC2)ccc1C` ?
a: > 7.00

q: pIC50 for `COc1ccc(NC(=O)[C@H]2CC[C@@H](N3Cc4c(C)cccc4C3=O)CC2)cc1Cl` ?
a: 6.00 to 7.00

q: pIC50 for `Cc1cccc2c1CN([C@H]1CC[C@@H](C(=O)Nc3ccc4cc[nH]c4c3)CC1)C(=O)N2` ?
a: 6.00 to 7.00

q: pIC50 for `COc1cc(NC(=O)[C@H]2CC[C@@H](N3Cc4c(C)cc(O)cc4OC3=O)CC2)ccc1C` ?
a: 6.00 to 7.00

Next:
q: pIC50 for `COc1cc(NC(=O)[C@H]2CC[C@@H](N3Cc4c(C)cc(C=O)cc4C3=O)CC2)ccc1C` ?
a: 6.00 to 7.00

q: pIC50 for COc1cc(NC(=O)[C@H]2CC[C@@H](N3Cc4c(Br)cc(NC(C)C(C)O)cc4C3=O)CC2)ccc1C (stereo partly drawn) ?
a: 5.00 to 6.00

q: pIC50 for `COc1cc(NC(=O)[C@H]2CC[C@H](N3Cc4c(C)cc(C5COC5)cc4NC3=O)CC2)ccc1C` ?
a: 5.00 to 6.00

q: pIC50 for `Cc1cc(NCCN(C)C)cc2c1CN([C@H]1CC[C@@H](C(=O)Nc3nc4ccccc4s3)CC1)C2=O` ?
a: 6.00 to 7.00

* * *

testedTarget: hOGG1 (Homo sapiens, UniProt O15527)
assayRemarks: Biochemical fluorescence assay to measure enzymatic activity of hOGG1 (OGG1/APEX IC50)
Design: Protein His-hOGG1 (12-323) was prepared; His (N); host or cells: E. coli
statedConditions: 1 nM OGG1+2 nM APEX+6 nM dsDNA (8-oxo-dG substrate); pH 7.5; RT 40 min; read-out: OGG1/APEX IC50
endpoint: IC50

Consider the reported IC50 for these molecules:
q: IC50 for `COc1cc(NC(=O)[C@H]2CC[C@@H](N3Cc4c(ccc(O)c4C)NC3=O)CC2)ccc1C` ?
a: < 100 nM

q: IC50 for `O=C(Nc1ccc(I)cc1)N1CCC(N2Cc3c(Br)cccc3C2=O)CC1` ?
a: > 10000 nM

q: IC50 for `COc1ccc(NC(=O)[C@H]2CC[C@@H](N3Cc4c(C)ccc(OC)c4NC3=O)CC2)cc1Cl` ?
a: 100 to 1000 nM

q: IC50 for `Cc1cccc2c1CN([C@H]1CC[C@@H](C(=O)Nc3cc4ccccc4[nH]3)CC1)C(=O)N2` ?
a: < 100 nM

q: IC50 for `COc1cc(NC(=O)[C@H]2CC[C@@H](N3Cc4c(C)cccc4C3=O)CC2)ccc1Cl` ?
a: 100 to 1000 nM

q: IC50 for `Cc1cccc2c1CN([C@H]1CC[C@@H](C(=O)Nc3ccc(Cl)c(F)c3)CC1)C2=O` ?
a: 100 to 1000 nM

q: IC50 for `COc1cc(NC(=O)[C@H]2CC[C@@H](N3Cc4c(C)ccc(Br)c4NC3=O)CC2)ccc1C` ?
a: < 100 nM

q: IC50 for COc1ccc(NC(=O)[C@]2(C)CC[C@H](N3Cc4c(C)ccc(OC)c4NC3=O)CC2)cc1C (single isomer, unassigned) ?
a: < 100 nM

Next:
q: IC50 for `CNCCNc1cc(C)c2c(c1)C(=O)N([C@H]1CC[C@@H](C(=O)Nc3ccc(C)c(OC)c3)CC1)C2` ?
a: < 100 nM

q: IC50 for `COc1cc(NC(=O)[C@H]2CC[C@@H](N3Cc4c(Br)cncc4C3=O)CC2)ccc1C` ?
a: 100 to 1000 nM

q: IC50 for `COc1cc(NC(=O)[C@H]2CC[C@@H](N3Cc4c(C)cccc4C3=O)CC2)ccc1Br` ?
a: 100 to 1000 nM

q: IC50 for `COc1ccc(NC(=O)[C@H]2CC[C@@H](N3Cc4c(C)cc(NCCN(C)C)cc4C3=O)CC2)cc1F` ?
a: < 100 nM

q: IC50 for `COc1ccc(NC(=O)[C@H]2CC[C@@H](N3Cc4c(C)cc(NCCN(C)C)cc4C3=O)CC2)cc1C` ?
a: < 100 nM

All values here come from patent US20260317356A1.
